Where do the numbers come from? From the supplement of paper PMC5752671.

# Test system: U937
# PROTOCOL: IC50 (cell viability) (log10 M)
# SETTINGS: 4 days
ASSAY ENDPOINT: IC50 (log10 M)
Answer with the value's number alone.

Record excerpt, results attached:
- COMPOUND STRUCTURE STRING: "CC(C)(C)c1cnc(CSc2cnc(NC(=O)C3CCNCC3)s2)o1"
  IC50 (log10 M): -6.88
- COMPOUND STRUCTURE STRING: "C=CCNC1=C2C[C@@H](C)C[C@H](OC)[C@H](O)[C@@H](C)/C=C(\\C)[C@H](OC(N)=O)[C@@H](OC)/C=C\\C=C(/C)C(=O)NC(=CC1=O)C2=O"
  IC50 (log10 M): -6.46
- COMPOUND STRUCTURE STRING: "Cc1ccc([N+](=O)[O-])cc1S(=O)(=O)N(C)/N=C/c1cnc2ccc(Br)cn12"
  IC50 (log10 M): -7.33

Q: Name the reported IC50 (log10 M) value associated with the compound NC(=O)Nc1sc(-c2ccc(F)cc2)cc1C(N)=O
Result: -5.73

Q: Name the reported IC50 (log10 M) value associated with the compound CS(=O)(=O)CCNCc1ccc(-c2ccc3ncnc(Nc4ccc(OCc5cccc(F)c5)c(Cl)c4)c3c2)o1
Result: -5.45

Q: Name the reported IC50 (log10 M) value associated with the compound FC(F)c1nc2ccccc2n1-c1nc(N2CCOCC2)nc(N2CCOCC2)n1
Result: -5.8

Q: Name the reported IC50 (log10 M) value associated with the compound NC(=O)Nc1cc(-c2cccc(F)c2)sc1C(=O)N[C@H]1CCCNC1
Result: -7.84
